These data points were gathered from the supplement of paper PMC10307832.

- Tested on: NCI-H3122
- assayExplanation: relative viability (nuclei count vs DMSO), 5 days (fraction); higher = more cells survive
- assaySetup: first compound 0.000632 µM
metric: relative viability
A bare number is all that is needed in reply.

{"molecule": "CC(=O)O[C@@]12CO[C@@H]1C[C@H](O)[C@@]1(C)C(=O)[C@H](O)C3=C(C)[C@@H](OC(=O)[C@H](O)[C@@H](NC(=O)OC(C)(C)C)c4ccccc4)C[C@@](O)([C@@H](OC(=O)c4ccccc4)[C@H]21)C3(C)C [Docetaxel] + CS(=O)(=O)CCNCc1ccc(-c2ccc3ncnc(Nc4ccc(OCc5cccc(F)c5)c(Cl)c4)c3c2)o1 [Lapatinib] (partner 2 µM)", "relative viability": 0.977}
{"molecule": "CC(=O)O[C@@]12CO[C@@H]1C[C@H](O)[C@@]1(C)C(=O)[C@H](O)C3=C(C)[C@@H](OC(=O)[C@H](O)[C@@H](NC(=O)OC(C)(C)C)c4ccccc4)C[C@@](O)([C@@H](OC(=O)c4ccccc4)[C@H]21)C3(C)C [Docetaxel] + Cc1nc(NC(=O)N2CCC[C@H]2C(N)=O)sc1-c1ccnc(C(C)(C)C(F)(F)F)c1 [Alpelisib] (partner 2 µM)", "relative viability": 0.753}

relative viability for CC(=O)O[C@@]12CO[C@@H]1C[C@H](O)[C@@]1(C)C(=O)[C@H](O)C3=C(C)[C@@H](OC(=O)[C@H](O)[C@@H](NC(=O)OC(C)(C)C)c4ccccc4)C[C@@](O)([C@@H](OC(=O)c4ccccc4)[C@H]21)C3(C)C [Docetaxel] + O=C(c1cc(Cc2n[nH]c(=O)c3ccccc23)ccc1F)N1CCN(C(=O)C2CC2)CC1 [Olaparib] (partner 8 µM) ? 0.623
